B1: PDZK1 (parent)
chain: QKEQGLSDNILSPVMNGGVQTWTQ

# Variants of: B1
# assay.procedure: protein stability index of a GFP-peptide fusion (GPS, HEK-293T) (PSI 1-6); higher = more stable;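 further: lentivirally expressed fusions sorted by FACS into six bins by GFP to DsRed ratio, PSI derived from sequencing read proportions per bin multiplied by bin number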
# run.conditions: c terminus: a fixed tail appended
readout.kind: protein stability index

Example cases with answers are listed next.
I10A
2.89
V14M
2.65
S7N
2.77
V14I
2.4
Q1K
2.58

Looking for the measured protein stability index of G5C , can you help?
3.57

And what about the variant N16D ?
3.71

And what about the variant W22R ?
5.04

And what about the variant Q24R ?
3.35

And what about the variant G5E ?
2.82
